The reported measurements were obtained from paper PMC6778631.

molecular target: IDH2‐R140Q (Homo sapiens, UniProt P48735, R140Q); assay: Cell-based enzyme assay, lysates of U-87 MG/IDH2-R140Q cells; settings: IC50, inhibition of IDH2-R140Q enzymatic activity
Sequence (P48735 40-452 R140Q): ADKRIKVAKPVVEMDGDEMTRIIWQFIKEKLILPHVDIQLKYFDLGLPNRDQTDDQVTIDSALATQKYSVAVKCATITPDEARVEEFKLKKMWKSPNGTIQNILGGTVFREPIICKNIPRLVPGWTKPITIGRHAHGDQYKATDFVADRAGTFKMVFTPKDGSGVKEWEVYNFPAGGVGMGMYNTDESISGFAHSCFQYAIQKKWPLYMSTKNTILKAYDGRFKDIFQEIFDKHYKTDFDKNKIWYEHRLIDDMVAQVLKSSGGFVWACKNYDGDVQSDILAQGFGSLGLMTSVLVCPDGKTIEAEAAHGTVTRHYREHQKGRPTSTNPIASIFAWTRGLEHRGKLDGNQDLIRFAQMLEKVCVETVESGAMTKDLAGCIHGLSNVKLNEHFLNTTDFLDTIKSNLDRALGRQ
MEASURED_PROPERTY: IC50 (nM)

structure_as_smiles=CC(C)(O)CNc1nc(Nc2ccnc(C(F)(F)F)c2)nc(-c2cccc(C(F)(F)F)n2)n1 numeric_value=229
